tested on: MCF7; experiment: Inhibition of MCF-7 cell proliferation at 10 nM; assay type: functional, Homo sapiens
property.label: Cell number (%)
Answer format: numeric, % implied, no suffix.

stdin: What value of Cell number has been reported for the following compound? CC/C(=C(/c1ccc(OCC(=O)O)cc1)c1cccc(O)c1)c1ccccc1
stdout: 99

stdin: Could you share which Cell number value was measured for O=C(O)CCCOc1ccc(/C(=C/CCc2ccccc2)c2cccc(O)c2)cc1 ?
stdout: 89

stdin: Form field: reported Cell number of O=C(O)CCCOc1ccc(/C(=C/CCc2ccccc2)c2ccc(O)cc2)cc1
stdout: 74

stdin: I have this compound here, CC/C(=C(\c1ccccc1)c1ccc(OCCN(C)C)cc1)c1ccccc1 [TAMOXIFEN] , and I need its recorded Cell number.
stdout: 97

----------
Biological target: Estrogen receptor (Homo sapiens, UniProt P03372)
Sequence (P03372 whole entry): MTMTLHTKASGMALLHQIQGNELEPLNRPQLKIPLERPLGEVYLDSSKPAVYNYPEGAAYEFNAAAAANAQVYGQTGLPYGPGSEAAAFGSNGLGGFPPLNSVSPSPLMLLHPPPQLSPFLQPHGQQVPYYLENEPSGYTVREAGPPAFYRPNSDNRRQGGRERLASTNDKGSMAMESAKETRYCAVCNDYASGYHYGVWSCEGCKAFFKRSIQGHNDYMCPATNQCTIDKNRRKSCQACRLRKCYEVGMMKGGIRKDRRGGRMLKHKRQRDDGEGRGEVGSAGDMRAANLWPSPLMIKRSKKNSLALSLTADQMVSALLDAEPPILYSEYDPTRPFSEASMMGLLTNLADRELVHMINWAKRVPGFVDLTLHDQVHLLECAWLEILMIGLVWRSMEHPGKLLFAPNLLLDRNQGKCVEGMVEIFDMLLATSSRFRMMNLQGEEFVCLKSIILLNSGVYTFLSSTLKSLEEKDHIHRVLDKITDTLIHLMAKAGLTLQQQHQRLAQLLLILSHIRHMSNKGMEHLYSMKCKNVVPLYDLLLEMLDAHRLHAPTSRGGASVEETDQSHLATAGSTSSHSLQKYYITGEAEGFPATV
For each of the compounds below, state its pIC50.
Units for pIC50: none; it is -log10 of a concentration expressed in mol/L.

stdin: Look at this compound and give its reported pIC50. CC/C(=C(\c1ccc(O)cc1)c1ccc(OCC(=O)O)cc1)c1ccccc1
stdout: 6.30

stdin: Recorded pIC50 of CC/C(=C(/c1ccc(OCC(=O)O)cc1)c1cccc(O)c1)c1ccccc1 , please.
stdout: 5.84

stdin: Endpoint output: pIC50 of CC[C@](C)(c1ccccc1)[C@@H](c1ccc(O)cc1)c1ccc(OCCCC(=O)O)cc1 . Value?
stdout: 5.22

stdin: Can you look up the measured pIC50 of O=C(O)CCCOc1ccc(/C(=C/CCc2ccccc2)c2ccc(O)cc2)cc1 for me?
stdout: 6.63

stdin: Which pIC50 value belongs to O=C(O)CCCOc1ccc(/C(=C/CCc2ccccc2)c2cccc(O)c2)cc1 ?
stdout: 5.77

Data credit: ChEMBL document CHEMBL1132343
